- MEASURED_TARGET: adenosine deaminase obtained from calf intestine (Bos taurus, UniProt P56658)
- Construct: purchased
- ASSAY_NOTES: Inhibition of the action of adenosine deaminase in vitro (decrease in absorbance at 265 nm)
- Type: biochemical
- ASSAY_SETUP: 10^-5 M adenosine; pH 7.4, 30° C.
ENDPOINT_LABEL: Inhibition of the action of adenosine deaminase in vitro (in %) At 10^-5 M adenosine

Example results:
O=C(c1cc(Br)c(O)c(Br)c1)c1c(-c2ccccc2)c(Br)c2ccccn12 | 53
CCc1oc2ccccc2c1C(=O)c1ccc(O)cc1 [2-ethyl-3-(4-hydroxy-benzoyl)-benzofuran, reference compound] | 18
CC(C)c1c(Br)c2ccccn2c1C(=O)c1cc(Br)c(O)c(Br)c1 | 57
CCCc1cc2ccccn2c1C(=O)c1ccc(O)c(Cl)c1 | 42

(P) CCCCc1c(Br)c2ccccn2c1C(=O)c1ccc(O)cc1
(Q) O=C(c1ccc(O)c(Br)c1)c1c(-c2ccccc2)cc2ccccn12
(R) O=C(c1cc(Br)c(O)c(Br)c1)c1c(-c2ccccc2)oc2ccccc12 [reference compound]
# rank by Inhibition of the action of adenosine deaminase in vitro (in %) At 10^-5 M adenosine, ascending (min first) Respond with an ordered listing of the labels, as requested. R, P, Q

* * *

- MEASURED_TARGET: xanthine oxidase found in milk (Bos taurus, UniProt P80457)
- Construct: purchased
- Sequence (P80457 whole entry): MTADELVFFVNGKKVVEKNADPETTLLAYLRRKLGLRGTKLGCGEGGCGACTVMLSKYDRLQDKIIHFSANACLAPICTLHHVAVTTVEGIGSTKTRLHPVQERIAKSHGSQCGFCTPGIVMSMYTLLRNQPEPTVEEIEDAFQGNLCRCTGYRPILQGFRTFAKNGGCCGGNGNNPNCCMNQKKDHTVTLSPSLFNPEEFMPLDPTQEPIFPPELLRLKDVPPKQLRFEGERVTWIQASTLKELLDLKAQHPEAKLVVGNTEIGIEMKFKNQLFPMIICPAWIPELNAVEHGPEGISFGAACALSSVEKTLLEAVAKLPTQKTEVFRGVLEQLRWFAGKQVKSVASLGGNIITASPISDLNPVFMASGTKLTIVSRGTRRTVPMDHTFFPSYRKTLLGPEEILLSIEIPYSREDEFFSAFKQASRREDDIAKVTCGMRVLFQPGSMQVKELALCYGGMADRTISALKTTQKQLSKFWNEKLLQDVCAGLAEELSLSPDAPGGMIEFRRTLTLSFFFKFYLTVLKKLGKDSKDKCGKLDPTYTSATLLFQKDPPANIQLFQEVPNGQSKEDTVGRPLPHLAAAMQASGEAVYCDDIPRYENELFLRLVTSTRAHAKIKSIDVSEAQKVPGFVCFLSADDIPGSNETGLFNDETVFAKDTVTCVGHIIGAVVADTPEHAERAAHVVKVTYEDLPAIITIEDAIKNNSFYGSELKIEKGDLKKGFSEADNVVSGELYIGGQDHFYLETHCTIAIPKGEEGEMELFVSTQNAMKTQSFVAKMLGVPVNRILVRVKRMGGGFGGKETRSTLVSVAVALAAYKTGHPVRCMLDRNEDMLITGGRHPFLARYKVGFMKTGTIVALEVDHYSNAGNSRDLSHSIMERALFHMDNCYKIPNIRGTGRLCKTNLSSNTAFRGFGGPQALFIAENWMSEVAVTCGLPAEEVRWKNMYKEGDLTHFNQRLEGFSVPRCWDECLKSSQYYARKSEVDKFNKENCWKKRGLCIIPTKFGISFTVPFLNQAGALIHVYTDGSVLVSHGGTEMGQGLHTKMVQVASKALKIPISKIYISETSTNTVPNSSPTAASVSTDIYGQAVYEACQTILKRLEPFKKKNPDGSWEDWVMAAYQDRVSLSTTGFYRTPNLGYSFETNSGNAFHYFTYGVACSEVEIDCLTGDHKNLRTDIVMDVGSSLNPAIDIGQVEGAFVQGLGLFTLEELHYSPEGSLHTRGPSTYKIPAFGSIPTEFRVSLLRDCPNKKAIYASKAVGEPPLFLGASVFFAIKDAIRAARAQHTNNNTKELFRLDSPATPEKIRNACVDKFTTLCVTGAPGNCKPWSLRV
- ASSAY_NOTES: Inhibition of the action of xanthine oxidase in vitro (U.V. spectrophotometry, formation of uric acid from hypoxanthine)
- Assay type: biochemical
- ASSAY_SETUP: compound at 10^-5 M; hypoxanthine substrate, pH 7.4, 37° C.
ENDPOINT_LABEL: inhibition at 10 µM (%)

Example results:
Cc1c(Br)c2ccccn2c1C(=O)c1ccc(O)c(Cl)c1 | 44
CC(C)c1cc2ccccn2c1C(=O)c1ccc(O)c(Cl)c1 | 88
CC(C)c1cc2ccccn2c1C(=O)c1ccc(O)c(Br)c1 | 94

(P) CCCc1c(Br)c2ccccn2c1C(=O)c1ccc(O)c(Br)c1
(Q) O=C(c1cc(Br)c(O)c(Br)c1)c1c(-c2ccc(Br)cc2)cc2ccccn12
Could you point out whether the larger inhibition at 10 µM belongs to P or to Q ? Selection: enter the item's label. P
(P: 97%, Q: 23%)

* * *

- MEASURED_TARGET: xanthine oxidase found in milk (Bos taurus, UniProt P80457)
- Construct: purchased
- ASSAY_NOTES: Inhibition of the action of xanthine oxidase in vitro (U.V. spectrophotometry, formation of uric acid from hypoxanthine)
- Format: biochemical
- ASSAY_SETUP: compound at 10^-5 M; hypoxanthine substrate, pH 7.4, 37° C.
ENDPOINT_LABEL: inhibition at 10 µM (%)

Example results:
CCCc1c(Br)c2ccccn2c1C(=O)c1cc(Br)c(O)c(Br)c1 [n-Propyl Br Br Br] | 95
Cc1c(Br)c2ccccn2c1C(=O)c1cc(Cl)c(O)c(Cl)c1 [Methyl Br Cl Cl] | 46
CCc1cc2ccccn2c1C(=O)c1ccc(O)c(OC)c1 [Ethyl H H OCH3] | 57
CC(C)c1cc2ccccn2c1C(=O)c1cc(Cl)c(O)c(Cl)c1 [Isopropyl H Cl Cl] | 96

(a) Cc1cc2ccccn2c1C(=O)c1ccc(O)c(Br)c1 [Methyl H H Br]
(b) CCc1c(Cl)c2ccccn2c1C(=O)c1ccc(O)c(Br)c1 [Ethyl Cl Br H]
(c) O=C(c1ccc(O)c(Br)c1)c1c(-c2ccc(Br)cc2)cc2ccccn12 [4-Bromo-phenyl H H Br]
Order the 3 molecules from highest to lowest inhibition at 10 µM. Respond with an ordered listing of the labels, as requested. a, b, c
(a: 74%, b: 34%, c: 22%)

* * *

- MEASURED_TARGET: adenosine deaminase obtained from calf intestine (Bos taurus, UniProt P56658)
- Construct: purchased
- Sequence (P56658 1-363): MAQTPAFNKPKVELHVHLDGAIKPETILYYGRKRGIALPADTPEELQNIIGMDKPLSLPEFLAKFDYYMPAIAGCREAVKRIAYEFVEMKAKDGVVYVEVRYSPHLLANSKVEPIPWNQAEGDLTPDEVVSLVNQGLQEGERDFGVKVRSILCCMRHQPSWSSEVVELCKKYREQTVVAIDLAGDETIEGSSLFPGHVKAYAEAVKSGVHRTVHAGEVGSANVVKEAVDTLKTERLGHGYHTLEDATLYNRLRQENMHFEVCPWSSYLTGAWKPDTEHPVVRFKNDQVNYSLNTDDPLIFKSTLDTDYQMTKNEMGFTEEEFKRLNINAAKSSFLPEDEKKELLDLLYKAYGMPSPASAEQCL
- ASSAY_NOTES: Inhibition of the action of adenosine deaminase in vitro (decrease in absorbance at 265 nm)
- Format: biochemical
- ASSAY_SETUP: 10^-5 M adenosine; pH 7.4, 30° C.
ENDPOINT_LABEL: Inhibition of the action of adenosine deaminase in vitro (in %) At 10^-5 M adenosine

CCCCc1cc2ccccn2c1C(=O)c1ccc(O)c(Br)c1 | 60
O=C(c1ccc(O)c(Br)c1)c1c(-c2ccc(F)cc2)c(Br)c2ccccn12 | 100
O=C(c1ccc(O)c(Cl)c1)c1c(-c2ccccc2)cc2ccccn12 | 58
O=C(c1ccc(O)c(Br)c1)c1c(-c2ccc(F)cc2)cc2ccccn12 | 60
CC(C)c1c(Br)c2ccccn2c1C(=O)c1ccc(O)c(Br)c1 | 75
O=C(c1ccc(O)c(Br)c1)c1c(-c2ccccc2)c(Br)c2ccccn12 | 100

* * *

- MEASURED_TARGET: adenosine deaminase obtained from calf intestine (Bos taurus)
- Construct: purchased
- ASSAY_NOTES: Inhibition of the action of adenosine deaminase in vitro (decrease in absorbance at 265 nm)
- Assay type: biochemical
- ASSAY_SETUP: 5.10^-5 M adenosine; pH 7.4, 30° C.
ENDPOINT_LABEL: Inhibition of the action of adenosine deaminase in vitro (in %) At 5.10^-5 M adenosine

O=C(c1cc(Cl)c(O)c(Cl)c1)c1c(-c2ccccc2)c(Cl)c2ccccn12 | 57
O=C(c1ccc(O)cc1)c1c(-c2cccc(Br)c2)c(Cl)c2ccccn12 | 55
O=C(c1ccc(O)c(Br)c1)c1c(-c2ccc(F)cc2)c(Br)c2ccccn12 | 94
O=C(c1ccc(O)cc1)c1c(-c2ccccc2)c(Br)c2ccccn12 | 52

* * *

- MEASURED_TARGET: xanthine oxidase found in milk (Bos taurus, UniProt P80457)
- Construct: purchased
- ASSAY_NOTES: Inhibition of the action of xanthine oxidase in vitro (U.V. spectrophotometry, formation of uric acid from hypoxanthine)
- Format: biochemical
- ASSAY_SETUP: compound at 10^-5 M; hypoxanthine substrate, pH 7.4, 37° C.
ENDPOINT_LABEL: inhibition at 10 µM (%)

(a) CC(C)c1cc2ccccn2c1C(=O)c1cc(Br)c(O)c(Br)c1 [Isopropyl H Br Br]
(b) O=C(c1ccc(O)c(Cl)c1)c1c(-c2cccc(Br)c2)cc2ccccn12 [3-Bromo-phenyl H H Cl]
(c) Cc1ccc(-c2c(Br)c3ccccn3c2C(=O)c2ccc(O)cc2)cc1 [4-Methyl-phenyl Br H H]
Rank the 3 compounds: largest inhibition at 10 µM first, smallest last. Respond with an ordered listing of the labels, as requested. a, c, b
(a: 99%, c: 48%, b: 23%)

* * *

- ASSAY_NOTES: Uricosuric action in humans after a single oral dose
- Type: in vivo
- ASSAY_SETUP: human, plasma, single oral dose 300 mg, read-out: time of highest plasmatic level
ENDPOINT_LABEL: Tmax (h)
Number in h, nothing else.

Consider CCc1cc2ccccn2c1C(=O)c1cc(Br)c(O)c(Br)c1 . Its measured Tmax is 5

* * *

- MEASURED_TARGET: xanthine oxidase found in milk (Bos taurus)
- Construct: purchased
- ASSAY_NOTES: Inhibition of the action of xanthine oxidase in vitro (U.V. spectrophotometry, formation of uric acid from hypoxanthine)
- Assay type: biochemical
- ASSAY_SETUP: compound at 10^-5 M; hypoxanthine substrate, pH 7.4, 37° C.
ENDPOINT_LABEL: inhibition at 10 µM (%)

CCc1cc2ccccn2c1C(=O)c1ccc(O)c(Cl)c1 | 87
CCCc1c(Br)c2ccccn2c1C(=O)c1ccc(O)c(Cl)c1 | 84
CCc1c(Cl)c2ccccn2c1C(=O)c1cc(Br)c(O)c(Br)c1 | 64
Cc1cc2ccccn2c1C(=O)c1cc(Cl)c(O)c(Cl)c1 | 84

* * *

- MEASURED_TARGET: xanthine oxidase found in milk (Bos taurus, UniProt P80457)
- Construct: purchased
- ASSAY_NOTES: Inhibition of the action of xanthine oxidase in vitro (U.V. spectrophotometry, formation of uric acid from hypoxanthine)
- Type: biochemical
- ASSAY_SETUP: compound at 10^-5 M; hypoxanthine substrate, pH 7.4, 37° C.
ENDPOINT_LABEL: inhibition at 10 µM (%)

(P) CCc1c(Br)c2ccccn2c1C(=O)c1ccc(O)c(Br)c1 [Ethyl Br Br H]
(Q) O=C(c1cc(Br)c(O)c(Br)c1)c1c(-c2ccccc2)c(Br)c2ccccn12 [Phenyl Br Br Br]
Given the two records P and Q , choose the one whose inhibition at 10 µM value is lower. Selection: enter the item's label. Q
(Q: 48%, P: 93%)
